Target: recombinant cynomolgus monkey CD3ε/δ heterodimer (cynomolgus monkey) (UniProt Q95LI5)
Sequence (Q95LI5 22-117, stated change not applied, chain 1 of 2): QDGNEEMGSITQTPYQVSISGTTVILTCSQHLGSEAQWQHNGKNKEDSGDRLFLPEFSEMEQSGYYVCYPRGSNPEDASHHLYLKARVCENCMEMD
Sequence (Q95LI8 22-105, stated change not applied, chain 2 of 2, further chain): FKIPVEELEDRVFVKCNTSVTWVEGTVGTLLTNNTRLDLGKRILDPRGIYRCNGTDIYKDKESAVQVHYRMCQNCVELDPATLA
Experiment: ELISA, coated CD3ε/δ
In this section we review reported Absorbance (450 nm) values for a set of binders.
Number, no unit, nothing else.

Solved entries (count: 4):
BINDER: H06 (antibody, human IgG1, lambda, L234A L235A, V domains shown) VH: EVQLVESGGGLVQPGGSLKLSCAASGFTFNTYAMNWVRQASGKGLEWVARIRSKYNNYATYYADSVKDRFTISRDDSQSTLYLQMNSLKTEDTAVYYCVRHGNFGNSYVSWFAYWGQGTLVTVSS VL: QAVVTQEPSLTVSPGGTVTLTCRSSTGAVTTSNYANWFQQKPGQAPRGLIYGTNKRAPWTPARFSGSLLGDKAALTLSGAQPEDEAEYYCALWYSNLWVFGGGTKLTVLG
MEASURED RESULT: 0.101

BINDER: E10 (antibody, human IgG1, lambda, L234A L235A, V domains shown) VH: EVQLVESGGGLVQPGGSLKLSCAASGFTFNTYAMNWVRQASGKGLEWVARIRSKYNNYATYYADSVKDRFTISRDDSKNTAYLQMNSLKTEDTAVYYCVRHGNFGNSYVSWFAYWGQGTLVTVSS VL: QAVVTQEPSLTVSPGGTVTLTCRSSTGAVTTSNYANWVQQKPGQAPRTLIYGTNKRAPWTPARFSGSLLGDKAALTLSGAQPEDEAEYYCALWYSNLWVFGGGTKLTVLG
MEASURED RESULT: 0.065

BINDER: G07 (antibody, human IgG1, lambda, L234A L235A, V domains shown) VH: EVQLVESGGGLVQPGGSLKLSCAASGFTFNTYAMNWVRQASGKGLEWVARIRSKYNNYATYYADSVKDRFTISRDDSQSTAYLQMNSLKTEDTAVYYCVRHGNFGNSYVSWFAYWGQGTLVTVSS VL: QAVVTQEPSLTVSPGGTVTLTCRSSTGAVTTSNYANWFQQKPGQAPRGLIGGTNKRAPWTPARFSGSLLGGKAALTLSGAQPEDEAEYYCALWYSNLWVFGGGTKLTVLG
MEASURED RESULT: 0.316

BINDER: B10 (antibody, human IgG1, lambda, L234A L235A, V domains shown) VH: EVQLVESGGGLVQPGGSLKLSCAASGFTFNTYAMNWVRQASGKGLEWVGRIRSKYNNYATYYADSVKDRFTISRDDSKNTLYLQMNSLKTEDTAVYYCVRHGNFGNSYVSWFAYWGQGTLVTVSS VL: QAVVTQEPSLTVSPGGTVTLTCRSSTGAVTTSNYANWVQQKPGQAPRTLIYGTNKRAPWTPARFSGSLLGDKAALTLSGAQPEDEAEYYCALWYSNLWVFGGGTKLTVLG
MEASURED RESULT: 0.076

Attention now shifts to the item below.
Input: Entry A16 (antibody, human IgG1, lambda, L234A L235A, V domains shown) VH: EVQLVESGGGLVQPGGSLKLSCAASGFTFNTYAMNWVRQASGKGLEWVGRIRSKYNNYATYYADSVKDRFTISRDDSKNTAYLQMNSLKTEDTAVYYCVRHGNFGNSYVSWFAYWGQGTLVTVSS VL: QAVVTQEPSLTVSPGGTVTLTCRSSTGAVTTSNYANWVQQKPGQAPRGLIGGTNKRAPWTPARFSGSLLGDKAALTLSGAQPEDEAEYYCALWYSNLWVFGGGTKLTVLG has what Absorbance (450 nm)?
Output: 2.8

Ref: patent US20200317779A1
